biological target: human kinase Mps-1 (Homo sapiens, UniProt P33981); construct: N-terminally GST-tagged human full length recombinant Mps-1 kinase; GST (N); assay: Mps-1 kinase assay (TR-FRET); conditions: N-terminally GST-tagged human full length recombinant Mps-1; 10 μM ATP; 1 μM peptide substrate; 60 min at 22° C.
Sequence (P33981 whole entry): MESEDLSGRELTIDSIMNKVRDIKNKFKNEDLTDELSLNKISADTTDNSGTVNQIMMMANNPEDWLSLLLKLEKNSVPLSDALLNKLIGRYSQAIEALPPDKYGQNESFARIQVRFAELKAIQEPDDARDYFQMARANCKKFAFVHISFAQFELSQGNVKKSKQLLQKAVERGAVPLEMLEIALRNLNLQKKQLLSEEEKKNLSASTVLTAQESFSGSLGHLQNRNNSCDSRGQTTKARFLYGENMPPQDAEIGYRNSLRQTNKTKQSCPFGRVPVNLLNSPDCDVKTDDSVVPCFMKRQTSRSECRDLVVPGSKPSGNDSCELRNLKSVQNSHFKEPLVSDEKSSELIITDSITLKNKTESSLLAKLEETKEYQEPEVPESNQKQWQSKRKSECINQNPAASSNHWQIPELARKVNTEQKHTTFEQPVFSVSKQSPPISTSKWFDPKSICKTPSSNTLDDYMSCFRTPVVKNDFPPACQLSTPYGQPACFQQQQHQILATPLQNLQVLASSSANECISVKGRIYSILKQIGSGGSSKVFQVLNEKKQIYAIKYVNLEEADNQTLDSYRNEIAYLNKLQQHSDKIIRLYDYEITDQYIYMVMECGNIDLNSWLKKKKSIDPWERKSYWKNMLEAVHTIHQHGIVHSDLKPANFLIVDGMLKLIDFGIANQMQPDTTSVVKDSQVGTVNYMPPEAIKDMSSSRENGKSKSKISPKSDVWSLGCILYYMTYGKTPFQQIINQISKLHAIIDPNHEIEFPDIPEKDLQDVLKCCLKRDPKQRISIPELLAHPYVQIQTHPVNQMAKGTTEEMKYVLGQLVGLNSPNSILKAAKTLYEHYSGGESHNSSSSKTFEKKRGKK
OBSERVATION TYPE: pIC50
// scale note: pIC50 = -log10(conc_M); give the bare number

Please review the entries below; each comes with its answer.
{"COMPOUND": "CNC(=O)c1ccc(-c2cnc3c(NCCC(F)(F)F)cc(Oc4cccc(O)c4)cn23)cc1C", "MEASUREMENT": 8.96}
{"COMPOUND": "Cc1cc(-c2cnc3c(NCCC(F)(F)F)cc(Oc4cccc(F)c4)cn23)ccc1C(=O)N[C@H]1C[C@@H]1F (relative stereo) [Example 12 (rac.-A)]", "MEASUREMENT": 8.96}
{"COMPOUND": "Cc1cc(-c2cnc3c(NCCC(F)(F)F)cc(-c4ccc(C(=O)NC5(C)CC5)c(C)c4)cn23)ccc1C(=O)NC1CC1", "MEASUREMENT": 8.52}

Give reported pIC50 value for `CCNC(=O)c1ccc(-c2cnc3c(NCCC(F)(F)F)cc(CCCO)cn23)cc1C` 7.20

* * *

biological target: human kinase Mps-1 (Homo sapiens, UniProt P33981); construct: N-terminally GST-tagged human full length recombinant Mps-1 kinase; GST (N); assay: Mps-1 kinase assay (TR-FRET); details: N-terminally GST-tagged human full length recombinant Mps-1; 10 μM ATP; 1 μM peptide substrate; 60 min at 22° C.
OBSERVATION TYPE: IC50

Give reported IC50 value for C#Cc1cc(NCCC(F)(F)F)c2ncc(-c3ccc(C(=O)NC4(C)CC4)c(C)c3)n2c1 [Example 17] 108 nM

Give reported IC50 value for CCNC(=O)c1ccc(-c2cnc3c(NCCC(F)(F)F)cc(Oc4ccc(O)c(F)c4)cn23)cc1C [Example 131] 1.4 nM

Give reported IC50 value for Cc1cc(-c2cnc3c(NCCC(F)(F)F)cc(-c4ccccc4CO)cn23)ccc1C(=O)NC1CC1 [Example 2-1] 0.9 nM

Give reported IC50 value for Cc1cc(-c2cnc3c(NCCC(F)(F)F)cc(Oc4ccc(OC(F)(F)F)cc4)cn23)ccc1C(=O)NC1(C#N)CC1 [Example 65] 131 nM

Give reported IC50 value for C=Cc1cc(NCCC(F)(F)F)c2ncc(-c3ccc(C(=O)NC4(C)CC4)c(C)c3)n2c1 [Example 95] 140 nM

* * *

target: human kinase Mps-1 (Homo sapiens, UniProt P33981); construct: N-terminally GST-tagged human full length recombinant Mps-1 kinase; GST (N); test: Mps-1 kinase assay (TR-FRET); conditions: N-terminally GST-tagged human full length recombinant Mps-1; 10 μM ATP; 1 μM peptide substrate; 60 min at 22° C.
// IC50 lookup, one value per entry
The reply should be a number in nM, with the unit left off.

Please review the entries below; each comes with its answer.
{"COMPOUND": "CNC(=O)c1ccc(-c2cnc3c(NCCC(F)(F)F)cc(-c4ccc(C(N)=O)c(C)c4)cn23)cc1C", "OBSERVATION TYPE": "IC50", "MEASUREMENT": 2.3}
{"COMPOUND": "Cc1ccc(F)cc1Oc1cc(NCCC(F)(F)F)c2ncc(-c3ccc(C(=O)N[C@H]4C[C@@H]4F)c(C)c3)n2c1 (relative stereo)", "OBSERVATION TYPE": "IC50", "MEASUREMENT": 1.3}
{"COMPOUND": "CNC(=O)c1ccc(-c2cnc3c(NCCC(F)(F)F)cc(-c4ccc(C(=O)NC5(C#N)CC5)c(C)c4)cn23)cc1C", "OBSERVATION TYPE": "IC50", "MEASUREMENT": 21.3}
{"COMPOUND": "CNC(=O)c1ccc(-c2cnc3c(NCCC(F)(F)F)cc(Oc4ccccc4)cn23)cc1C", "OBSERVATION TYPE": "IC50", "MEASUREMENT": 1.5}

Give reported IC50 value for `C#Cc1cc(NCCC(F)(F)F)c2ncc(-c3ccc(C(=O)NC4(C#N)CC4)c(C)c3)n2c1` 65.5

Give reported IC50 value for `Cc1cc(-c2cnc3c(NCCC(F)(F)F)cc(Oc4cccc(OC(F)(F)F)c4)cn23)ccc1C(=O)NC1CC1` 6.8

Source of measurements: patent US20140255392A1
